Observable: IC50 (nM)
Quick note: give the figure in nM, leave out the unit.

Query :: Form field - read-out: IC50; system: MERS-CoV 3CL^pro (Middle East respiratory syndrome-related coronavirus, UniProt K9N7C7); submitted item: CC(C)(C)[C@H](NC(=O)[C@@H]1CC1(F)F)C(=O)N1C[C@@H]2CCC[C@@H]2[C@H]1C(=O)NN(C[C@H]1C(=O)N[C@@H]2C[C@@H]21)C(=O)[C@H](F)Cl [Example 35]
Sequence (K9N7C7 3248-3553): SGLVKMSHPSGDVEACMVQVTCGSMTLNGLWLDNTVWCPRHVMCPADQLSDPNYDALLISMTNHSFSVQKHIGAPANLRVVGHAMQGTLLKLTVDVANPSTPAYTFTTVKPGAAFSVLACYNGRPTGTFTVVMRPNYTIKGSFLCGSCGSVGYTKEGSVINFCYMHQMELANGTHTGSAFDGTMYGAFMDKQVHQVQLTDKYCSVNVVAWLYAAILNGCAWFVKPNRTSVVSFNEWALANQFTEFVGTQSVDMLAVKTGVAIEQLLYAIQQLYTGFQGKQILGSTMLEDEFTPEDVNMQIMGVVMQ
Result :: 117

Query :: API: value(readout=IC50, system=MERS-CoV 3CL^pro (Middle East respiratory syndrome-related coronavirus, UniProt K9N7C7)) for record CC(C)(C)[C@H](NC(=O)[C@@H]1CC1(F)F)C(=O)N1C[C@@H]2CCC[C@@H]2[C@H]1C(=O)NN(C[C@H]1C(=O)N[C@H]2C[C@H]21)C(=O)[C@@H](F)Cl [Example 39]
Result :: 289

Query :: Hi! What's the reported IC50 for CC(C)(C)[C@H](NC(=O)[C@@H]1CC1(F)F)C(=O)N1C[C@@H]2CCC[C@@H]2[C@H]1C(=O)NN(C[C@H]1C(=O)N[C@H]2C[C@H]21)C(=O)[C@H](F)Cl [Example 36] on MERS-CoV 3CL^pro (Middle East respiratory syndrome-related coronavirus, UniProt K9N7C7)?
Result :: 174

* * *

Exercise: for every item that follows, state its recorded IC50.
Target: MERS-CoV 3CL^pro (Middle East respiratory syndrome-related coronavirus, UniProt K9N7C7)
# value in nM; strip the unit string

Query :: Returns the measured IC50 for the input molecule. Input: C[C@@H]1C[C@@H](CN(NC(=O)[C@@H]2[C@@H]3[C@H](CN2C(=O)[C@@H](NC(=O)[C@@H]2CC2(F)F)C(C)(C)C)C3(C)C)C(=O)[C@@H](F)Cl)C(=O)N1 [Example 34]
Result :: 80

Query :: Request the reported IC50 associated with CC1(C)C[C@@H](CN(NC(=O)[C@@H]2[C@@H]3[C@H](CN2C(=O)[C@@H](NC(=O)[C@@H](F)Cl)C(C)(C)C)C3(C)C)C(=O)[C@@H](F)Cl)C(=O)N1 [Example 22]
Result :: 1870

Query :: # input molecule: CC[C@H](C)[C@H](NC(=O)C1(F)CC1)C(=O)N1C[C@H]2[C@@H]([C@H]1C(=O)NN(C[C@@H]1CC(C)(C)NC1=O)C(=O)[C@H](F)Cl)C2(C)C [Example 1a] ; wanted: its IC50
Result :: 635

* * *

Field: IC50. Provide a value for each of the compounds that follow.

Query :: Recall the recorded IC50 for `CC1(C)C[C@H](CN(NC(=O)[C@@H]2[C@H]3CCC[C@H]3CN2C(=O)[C@@H](NC(=O)[C@@H]2CC2(F)F)C(C)(C)C)C(=O)[C@H](F)Cl)C(=O)N1` with HCoV-229E 3CL^pro (Human coronavirus 229E, UniProt P0C6X1) and state it.
Sequence (P0C6X1 2966-3267): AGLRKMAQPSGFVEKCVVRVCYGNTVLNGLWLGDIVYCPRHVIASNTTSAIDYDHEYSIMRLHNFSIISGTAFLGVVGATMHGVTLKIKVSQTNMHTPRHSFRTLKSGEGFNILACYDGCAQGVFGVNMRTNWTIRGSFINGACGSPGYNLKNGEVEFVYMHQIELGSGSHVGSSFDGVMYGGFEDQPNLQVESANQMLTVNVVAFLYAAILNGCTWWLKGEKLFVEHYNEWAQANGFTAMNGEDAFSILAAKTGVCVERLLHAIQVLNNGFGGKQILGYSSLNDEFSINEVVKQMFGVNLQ
Result :: 4.1 µM

Query :: Provide the documented IC50 with HCoV-229E 3CL^pro (Human coronavirus 229E, UniProt P0C6X1) as the system for `CC1(C)C[C@@H](CN(NC(=O)[C@@H]2[C@H]3CCC[C@H]3CN2C(=O)[C@@H](NC(=O)C(F)F)C(C)(C)C)C(=O)[C@@H](F)Cl)C(=O)N1`
Result :: > 10 µM

Query :: State its IC50 on HCoV-229E 3CL^pro (Human coronavirus 229E, UniProt P0C6X1): `CC1(C)C[C@@H](CN(NC(=O)[C@@H]2[C@@H]3[C@H](CN2C(=O)[C@@H](NC(=O)[C@H](F)Cl)C(C)(C)C)C3(C)C)C(=O)[C@H](F)Cl)C(=O)N1`
Result :: 2.02 µM

Query :: Enter reported IC50 observed with HCoV-229E 3CL^pro (Human coronavirus 229E, UniProt P0C6X1) for `CC1(C)C[C@@H](CN(NC(=O)[C@@H]2[C@@H]3[C@H](CN2C(=O)[C@@H](NC(=O)[C@@H]2CC2(F)F)C(C)(C)C)C3(C)C)C(=O)[C@H](F)Cl)C(=O)N1`
Result :: 0.778 µM

Query :: GET /values?readout=IC50&system=HCoV-229E 3CL^pro (Human coronavirus 229E, UniProt P0C6X1)&item= `CC[C@H](C)[C@H](NC(=O)C1(F)CC1)C(=O)N1C[C@H]2[C@@H]([C@H]1C(=O)NN(C[C@H]1CC(C)(C)NC1=O)C(=O)[C@H](F)Cl)C2(C)C`
Result :: 0.131 µM

Query :: Lab note: need IC50 with HCoV-229E 3CL^pro (Human coronavirus 229E, UniProt P0C6X1) for entry `C[C@H]1C[C@H](CN(NC(=O)[C@@H]2[C@@H]3[C@H](CN2C(=O)[C@@H](NC(=O)[C@@H]2CC2(F)F)C(C)(C)C)C3(C)C)C(=O)[C@H](F)Cl)C(=O)N1` , please look it up.
Result :: 0.116 µM

Query :: Form: Entry = `CC(C)(C)[C@H](NC(=O)[C@@H]1CC1(F)F)C(=O)N1C[C@@H]2CCC[C@@H]2[C@H]1C(=O)NN(C[C@H]1C(=O)N[C@@H]2C[C@@H]21)C(=O)[C@H](F)Cl` | System = HCoV-229E 3CL^pro (Human coronavirus 229E, UniProt P0C6X1) | IC50 = ____
Result :: 0.041 µM

Query :: # value lookup — system HCoV-229E 3CL^pro (Human coronavirus 229E, UniProt P0C6X1), readout IC50, item `CC1(C)C[C@@H](CN(NC(=O)[C@@H]2[C@H]3CCC[C@H]3CN2C(=O)[C@@H](NC(=O)[C@@H]2CC2(F)F)C(C)(C)C)C(=O)[C@@H](F)Cl)C(=O)N1`
Result :: 7.85 µM

Query :: Given the entry `CC1(C)C[C@@H](CN(NC(=O)[C@@H]2[C@H]3CCC[C@H]3CN2C(=O)[C@@H](NC(=O)[C@@H]2CC2(F)F)C(C)(C)C)C(=O)[C@H](F)Cl)C(=O)N1` , what IC50 was observed with HCoV-229E 3CL^pro (Human coronavirus 229E, UniProt P0C6X1)?
Result :: 0.838 µM

Query :: IC50 of `C[C@@H]1C[C@@H](CN(NC(=O)[C@@H]2[C@H]3CCC[C@H]3CN2C(=O)[C@@H](NC(=O)[C@@H]2CC2(F)F)C(C)(C)C)C(=O)[C@@H](F)Cl)C(=O)N1` on HCoV-229E 3CL^pro (Human coronavirus 229E, UniProt P0C6X1)?
Result :: 0.066 µM
